Parameter: AC50. Scope: all listed entries.
Target: human PAH with the R408W mutation (Homo sapiens, UniProt P00439, R408W)
Construct: expressed in transfected cells
Sequence (P00439 1-452 R408W): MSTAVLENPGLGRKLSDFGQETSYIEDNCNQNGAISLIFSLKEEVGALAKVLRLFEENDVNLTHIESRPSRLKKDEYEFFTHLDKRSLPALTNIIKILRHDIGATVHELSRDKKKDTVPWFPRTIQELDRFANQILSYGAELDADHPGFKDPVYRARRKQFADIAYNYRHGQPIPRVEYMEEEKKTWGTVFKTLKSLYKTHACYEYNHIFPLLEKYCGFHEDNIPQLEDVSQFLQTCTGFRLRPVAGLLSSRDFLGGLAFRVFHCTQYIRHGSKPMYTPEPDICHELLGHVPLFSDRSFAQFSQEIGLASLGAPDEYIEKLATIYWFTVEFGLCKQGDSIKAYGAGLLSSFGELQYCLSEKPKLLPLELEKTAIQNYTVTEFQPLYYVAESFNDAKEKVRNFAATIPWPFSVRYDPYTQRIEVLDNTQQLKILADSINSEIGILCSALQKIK
Test: Cell Based Phenylalanine Flux Assay;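 also: after compound treatment, cells received sepiapterin plus isotope-labelled Phenylalanine for 4 hours, then labelled Tyrosine in the medium was quantified, 10-point 2-fold dilution series run in duplicate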
Conditions: A375 cells expressing human R408W PAH; 24 hrs compound incubation; 13C-Tyrosine by LC-MS; average where tested multiple times; read-out: AC50

O=C(c1nnc(-c2cnn(C(F)F)c2)o1)N1CCc2[nH]cnc2[C@H]1c1cc2cccc(C(F)(F)F)n2n1; 500 to 1000 nM

Looking for the measured AC50 of Cc1ncccc1-c1nnc(C(=O)N2CCc3[nH]cnc3[C@H]2c2cc3cccc(C(F)F)n3n2)o1 , can you help?
< 500 nM

Looking for the measured AC50 of O=C(c1nnc(-c2ccn(C(F)F)n2)o1)N1CCc2[nH]cnc2[C@H]1c1cc2c(F)cccn2n1 , can you help?
< 500 nM

Looking for the measured AC50 of CC1(c2nnc(C(=O)N3CCc4[nH]cnc4[C@H]3c3cc4cccc(Cl)n4n3)o2)CC1 , can you help?
< 500 nM

Attribution: patent US20230365592A1
